Data provenance: ChEMBL document CHEMBL1126682

# MIC per record follows
Test system: Escherichia coli
Test: Minimum inhibition concentration against Escherichia coli NIHJ JC-2 strain
Format: functional
metric_name: MIC (µg/mL)

molecule	experimental_result
CCn1cc(C(=O)O)c(=O)c2cc(F)c(N3CCOC(CN)C3)c(F)c21 (centres undefined)	1.56
NCC1CN(c2c(F)cc3c(=O)c(C(=O)O)cn(-c4cc(F)cc(F)c4)c3c2F)CCO1 (centres undefined)	0.39
CN(Cc1ccccc1)CC1CN(c2c(F)cc3c(=O)c(C(=O)O)cn(C4CC4)c3c2F)CCO1 (centres undefined)	1.56
NCC1CN(c2c(F)cc3c(=O)c(C(=O)O)cn(C4CC4)c3c2Cl)CCO1 (centres undefined)	0.1
